# credit: patent US20240052042A1

TARGET SYSTEM: T1, human NPR1 on CHO-K1 cells (human, UniProt P16066 33-1061)
T1 construct: also called hNPR1 CHO K1; human NPR1 expressing CHO-K1 cells
T1 sequence: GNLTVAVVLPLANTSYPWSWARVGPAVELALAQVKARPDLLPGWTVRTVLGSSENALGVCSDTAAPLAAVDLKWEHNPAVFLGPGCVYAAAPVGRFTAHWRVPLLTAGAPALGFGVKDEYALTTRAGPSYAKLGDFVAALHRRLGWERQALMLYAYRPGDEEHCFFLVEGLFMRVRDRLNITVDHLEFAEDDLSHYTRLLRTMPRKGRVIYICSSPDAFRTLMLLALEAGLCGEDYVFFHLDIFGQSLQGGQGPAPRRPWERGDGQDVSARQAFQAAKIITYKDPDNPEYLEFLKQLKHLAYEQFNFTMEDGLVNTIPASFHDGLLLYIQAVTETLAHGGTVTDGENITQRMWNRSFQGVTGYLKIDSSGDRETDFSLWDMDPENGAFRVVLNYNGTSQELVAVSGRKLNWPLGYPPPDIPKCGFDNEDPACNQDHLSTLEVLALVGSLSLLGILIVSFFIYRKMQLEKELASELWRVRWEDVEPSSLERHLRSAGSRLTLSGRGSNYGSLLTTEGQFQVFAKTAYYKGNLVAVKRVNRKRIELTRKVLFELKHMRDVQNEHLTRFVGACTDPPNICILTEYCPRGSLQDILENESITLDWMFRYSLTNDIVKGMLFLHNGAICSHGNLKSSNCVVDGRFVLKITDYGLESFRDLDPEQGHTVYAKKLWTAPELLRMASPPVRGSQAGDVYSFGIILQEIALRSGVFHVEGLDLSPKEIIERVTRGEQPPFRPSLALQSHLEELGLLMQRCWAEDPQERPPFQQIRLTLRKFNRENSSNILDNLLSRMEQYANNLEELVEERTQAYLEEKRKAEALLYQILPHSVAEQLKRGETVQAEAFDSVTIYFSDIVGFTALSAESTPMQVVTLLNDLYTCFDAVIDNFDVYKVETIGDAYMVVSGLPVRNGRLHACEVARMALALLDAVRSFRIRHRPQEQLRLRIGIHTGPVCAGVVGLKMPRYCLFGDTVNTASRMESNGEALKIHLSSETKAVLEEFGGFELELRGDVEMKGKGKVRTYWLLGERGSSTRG
ASSAY TEXT: flow cytometry, hNPR1 CHO-K1 cells, IgG
ENDPOINT NAME: flow cytometry S/BG at 1 µM IgG
Enter the number, and then the unit.

Problem: Identify flow cytometry S/BG at 1 µM IgG associated with the binder YY06 (IgG format) (antibody, V domains shown, also called YY06_LALA) VH: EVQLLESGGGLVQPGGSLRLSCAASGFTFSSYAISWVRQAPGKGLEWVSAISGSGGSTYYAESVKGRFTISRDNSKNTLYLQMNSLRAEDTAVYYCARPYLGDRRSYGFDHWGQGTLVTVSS VL: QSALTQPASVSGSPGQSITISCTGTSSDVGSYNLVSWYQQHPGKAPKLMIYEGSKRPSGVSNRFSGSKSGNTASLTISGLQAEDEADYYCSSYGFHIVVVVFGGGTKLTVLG
Solution: 26 S/BG

Problem: Provide one value: measured flow cytometry S/BG at 1 µM IgG of YY07 (IgG format) (antibody, V domains shown, also called YY07_LALA) VH: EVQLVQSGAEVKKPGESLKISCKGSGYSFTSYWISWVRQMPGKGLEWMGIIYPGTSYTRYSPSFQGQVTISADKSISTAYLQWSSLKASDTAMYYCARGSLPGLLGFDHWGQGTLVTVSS VL: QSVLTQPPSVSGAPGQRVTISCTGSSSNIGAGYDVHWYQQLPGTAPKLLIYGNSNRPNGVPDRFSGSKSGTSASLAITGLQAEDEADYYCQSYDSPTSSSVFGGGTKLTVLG
Solution: 8 S/BG

Problem: Give flow cytometry S/BG at 1 µM IgG for YY05 (IgG format) (antibody, V domains shown, also called YY05_LALA) VH: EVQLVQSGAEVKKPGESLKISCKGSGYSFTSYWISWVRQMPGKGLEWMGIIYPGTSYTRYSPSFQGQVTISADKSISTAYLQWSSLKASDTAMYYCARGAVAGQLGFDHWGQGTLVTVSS VL: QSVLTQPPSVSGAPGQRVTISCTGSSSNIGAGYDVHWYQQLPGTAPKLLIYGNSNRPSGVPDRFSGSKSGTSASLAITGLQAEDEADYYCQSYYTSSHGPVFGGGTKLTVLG
Solution: 15 S/BG

Continuing:
Problem: Supply measured flow cytometry S/BG at 1 µM IgG of YY01 (IgG format) (antibody, V domains shown, also called YY01_LALA) VH: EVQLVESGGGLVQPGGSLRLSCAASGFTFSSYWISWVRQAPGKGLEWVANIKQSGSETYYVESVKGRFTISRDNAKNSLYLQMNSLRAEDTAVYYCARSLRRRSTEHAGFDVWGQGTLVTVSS VL: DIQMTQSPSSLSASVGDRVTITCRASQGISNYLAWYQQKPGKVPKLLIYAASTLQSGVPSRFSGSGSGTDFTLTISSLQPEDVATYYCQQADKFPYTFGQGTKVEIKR in your reply.
Solution: 35 S/BG
